# experimental-system: G12D-mutant human KRAS (amino acid residues 1-188) (Homo sapiens, UniProt P01116, G12D)
# Construct: G12D or G12C-mutant human KRAS (amino acid residues 1-188) with FLAG tag; made in house; host or cells: E. coli
# Sequence (P01116 1-188 isoform P01116-2 G12D): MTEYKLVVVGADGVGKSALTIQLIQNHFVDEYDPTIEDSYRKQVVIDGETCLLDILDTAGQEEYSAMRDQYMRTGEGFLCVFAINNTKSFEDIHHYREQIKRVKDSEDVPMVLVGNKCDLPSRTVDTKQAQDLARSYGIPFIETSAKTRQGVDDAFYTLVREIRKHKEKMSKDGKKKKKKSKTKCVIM
# experiment-summary: KRAS Binding Disruption Assay (AlphaScreen; biotinylated KRpep-2d analogue or RAF1-RBD), G12D
# condition-set: KRAS G12D; geometric mean; read-out: KRAS GMean IC50 (uM) MUTATION: G12D
So I've got a bunch of compounds here, and I need their IC50 values.

Observed IC50 on G12D-mutant human KRAS (amino acid residues 1-188) (Homo sapiens, UniProt P01116, G12D) for CCc1cccc2[nH]cc(-c3ncc4c(N5C[C@H]6CC[C@@H](C5)N6)nc(OCC56CCCN5CCC6)nc4c3F)c12 [P-0549] , please.
0.0001 to 10 µM

Also, CN1CCC[C@H]1COc1nc(N2C[C@H]3CC[C@@H](C2)N3C(=O)[C@@H](N)CO)c2ccc(-c3cc(O)cc4ccccc34)c(F)c2n1 [P-0424] please.
0.0001 to 10 µM

Also, NS(=O)(=O)CCC(=O)N1[C@@H]2CC[C@H]1CN(c1nc(OCC34CCCN3CCC4)nc3cc(-c4cc(O)cc5ccccc45)ccc13)C2 [P-0093] please.
0.0001 to 10 µM

Also, C[C@@H](Oc1nc(N2C[C@H]3CC[C@@H](C2)N3)c2ccc(-c3cc(O)cc4ccccc34)cc2n1)[C@@H]1CCCN1C [P-0245] please.
0.0001 to 10 µM

Also, CN1CCC[C@H]1COc1nc(N2C[C@H]3CC[C@@H](C2)N3)c2ccc(-c3ccc(CO)s3)cc2n1 [P-0182] please.
100 to 1000 µM

Also, CN1CCC[C@H]1COc1nc(N2C[C@@H]3CC[C@H]2CN3)c2ccc(-c3cc(O)cc4ccccc34)cc2n1 [P-0011] please.
0.0001 to 10 µM

Also, CN(C)CCNS(=O)(=O)N1[C@@H]2CC[C@H]1CN(c1nc(OCC34CCCN3CCC4)nc3c(F)c(-c4cc(O)cc5ccccc45)ccc13)C2 [P-0280] please.
0.0001 to 10 µM

Also, CN1CCC(Oc2nc(N3C[C@H]4CC[C@@H](C3)N4)c3cc(Cl)c(-c4c(O)cccc4F)c(F)c3n2)CC1 [P-0329] please.
0.0001 to 10 µM

Also, CP(C)(=O)CC(=O)N1[C@@H]2CC[C@H]1CN(c1nc(OCC34CCCN3CCC4)nc3c(F)c(-c4cc(O)cc5ccccc45)ccc13)C2 [P-0773] please.
0.0001 to 10 µM

Also, CN1CCC[C@H]1COc1nc(N2C[C@H]3CC[C@@H](C2)N3)c2cnc(-c3cc(O)cc4ccccc34)cc2n1 [P-0004] please.
0.0001 to 10 µM

Also, CNCCc1nc(N2C[C@H]3CC[C@@H](C2)N3)c2ccc(-c3cc(O)cc4ccccc34)c(F)c2n1 [P-0754] please.
0.0001 to 10 µM

Also, CN1CCC[C@H]1COc1nc(N2C[C@H]3CC[C@@H](C2)N3C(=O)C(=O)Nc2ccccn2)c2ccc(-c3cc(O)cc4ccccc34)c(F)c2n1 [P-0400] please.
0.0001 to 10 µM

Also, CN1CCC[C@H]1COc1nc(N2[C@@H]3CC[C@H]2CN(CC(O)CN2CCOCC2)C3)c2ccc(-c3cc(O)cc4ccccc34)cc2n1 (stereo partly drawn) [P-0346] please.
0.0001 to 10 µM

Also, CS(=O)(=O)NCCc1nc(N2C[C@H]3CC[C@@H](C2)N3)c2ccc(-c3cc(O)cc4ccccc34)c(F)c2n1 [P-0771] please.
0.0001 to 10 µM

Also, CN1CC(=O)N(Cc2nc(N3C[C@H]4CC[C@@H](C3)N4)c3cc(Cl)c(-c4c(O)cccc4F)c(F)c3n2)C1=O [P-0460] please.
10 to 100 µM

Also, CN1CCc2c(cccc2Oc2nc(N3C[C@H]4CC[C@@H](C3)N4)c3ccc(-c4c(O)cccc4F)c(F)c3n2)C1 [P-0334] please.
10 to 100 µM

Also, Oc1cc(-c2ccc3c(N4C[C@H]5CC[C@@H](C4)N5)nc(N4CCC5(CNC5)C4)nc3c2F)c2ccccc2c1 [P-0508] please.
0.0001 to 10 µM

Also, Fc1c(-c2c[nH]c3cccc(F)c23)c(Cl)cc2c(N3C[C@H]4CC[C@@H](C3)N4)nc(OCC34CCCN3CCC4)nc12 [P-0809] please.
0.0001 to 10 µM

Also, Cc1cccc2cccc(-c3ccc4c(N5C[C@H]6CC[C@@H](C5)N6)nc(OC[C@@H]5CCCN5C)nc4c3F)c12 [P-0465] please.
0.0001 to 10 µM

Also, Oc1cc(-c2ccc3c(N4C[C@H]5CC[C@@H](C4)N5)nc(OCC45CCCCN4CCC5)nc3c2)c2ccccc2c1 (stereo partly drawn) [P-0102] please.
0.0001 to 10 µM

Also, O=C1NC2(CCO1)CN(c1nc(N3C[C@H]4CC[C@@H](C3)N4)c3ccc(-c4cc(O)cc5ccccc45)c(F)c3n1)C2 [P-0547] please.
0.0001 to 10 µM

Also, OCCOc1nc(N2C[C@H]3CC[C@@H](C2)N3)c2ccc(-c3cc(O)cc4ccccc34)c(F)c2n1 [P-0784] please.
0.0001 to 10 µM

Also, CN1CCC[C@H]1COc1nc(N2[C@@H]3CC[C@H]2CN(C(=O)[C@@H](N)CO)C3)c2ccc(-c3cc(O)cc4ccccc34)cc2n1 [P-0223] please.
10 to 100 µM

Also, CN1CCC[C@H]1COc1nc(N2C[C@H]3CC[C@@H](C2)N3C(=O)NC2CCNC2)c2ccc(-c3cc(O)cc4ccccc34)c(F)c2n1 (stereo partly drawn) [P-0106] please.
0.0001 to 10 µM

Also, NS(=O)(=O)N1[C@@H]2CC[C@H]1CN(c1nc(OCC34CCCN3CCC4)nc3c(F)c(-c4cc(O)cc5ccccc45)ccc13)C2 [P-0662] please.
0.0001 to 10 µM

Also, CN1CCC[C@H]1COc1nc(N2[C@@H]3CC[C@H]2CNC3)c2ccc(-c3c(O)cccc3Cl)cc2n1 [P-0290] please.
10 to 100 µM

Also, NCCN1[C@@H]2CC[C@H]1CN(c1nc(OCC34CCCN3CCC4)nc3c(F)c(-c4cc(O)cc5ccccc45)ccc13)C2 [P-0545] please.
0.0001 to 10 µM

====

# experimental-system: G12C-mutant human KRAS (amino acid residues 1-188) (Homo sapiens, UniProt P01116, G12C)
# Construct: G12D or G12C-mutant human KRAS (amino acid residues 1-188) with FLAG tag; made in house; host or cells: E. coli
# Sequence (P01116 1-188 isoform P01116-2 G12C): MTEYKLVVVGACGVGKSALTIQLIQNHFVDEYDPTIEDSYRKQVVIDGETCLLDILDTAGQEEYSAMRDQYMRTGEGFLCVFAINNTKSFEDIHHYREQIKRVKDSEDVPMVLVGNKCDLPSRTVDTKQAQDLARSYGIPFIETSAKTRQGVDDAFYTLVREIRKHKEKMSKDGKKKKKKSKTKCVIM
# experiment-summary: KRAS Binding Disruption Assay (AlphaScreen; biotinylated KRpep-2d analogue or RAF1-RBD), G12C
# condition-set: geometric mean, read-out: KRAS GMean IC50 (uM) MUTATION: G12C
So I've got a bunch of compounds here, and I need their IC50 values.

Quick one: IC50 of Oc1cc(-c2c(F)cc3c(N4C[C@H]5CC[C@@H](C4)N5)nc(OCC45CCCN4CCC5)nc3c2F)c2c(Cl)cccc2c1 ?
0.0001 to 10 µM

Also, Oc1cc(-c2ccc3c(N4C[C@H]5CC[C@@H](C4)N5)nc(OCC4(O)CCC4)nc3c2F)c2ccccc2c1 please.
10 to 100 µM

Also, Oc1cc(-c2ccc3c(N4C[C@H]5CC[C@@H](C4)N5)nc(OCC4CCOCC4)nc3c2F)c2ccccc2c1 please.
10 to 100 µM

Also, NS(=O)(=O)NCC(=O)N1[C@@H]2CC[C@H]1CN(c1nc(OCC34CCCN3CCC4)nc3c(F)c(-c4cc(O)cc5ccccc45)ccc13)C2 please.
0.0001 to 10 µM

Also, CN1CCC[C@H]1COc1nc(N2CC3COCC(C2)N3)c2ccc(-c3cc(O)cc4ccccc34)c(F)c2n1 please.
0.0001 to 10 µM

Also, N#CC1(CC(=O)N2[C@@H]3CC[C@H]2CN(c2nc(OCC45CCCN4CCC5)nc4c(F)c(-c5cc(O)cc6ccccc56)ccc24)C3)CC1 please.
0.0001 to 10 µM

Also, Oc1cc(-c2ccc3c(N4C[C@H]5CC[C@@H](C4)N5)nc(OCCn4ccnc4)nc3c2F)c2ccccc2c1 please.
0.0001 to 10 µM

====

# experimental-system: G12D-mutant human KRAS (amino acid residues 1-188) (Homo sapiens, UniProt P01116, G12D)
# Construct: G12D or G12C-mutant human KRAS (amino acid residues 1-188) with FLAG tag; made in house; host or cells: E. coli
# experiment-summary: KRAS Binding Disruption Assay (AlphaScreen; biotinylated KRpep-2d analogue or RAF1-RBD), G12D
# condition-set: KRAS G12D; geometric mean; read-out: KRAS GMean IC50 (uM) MUTATION: G12D
measured-quantity: IC50

Quick one: IC50 of O=C(NC1CCOC1)N1[C@@H]2CC[C@H]1CN(c1nc(OCC34CCCN3CCC4)nc3cc(-c4cc(O)cc5ccccc45)ccc13)C2 (stereo partly drawn) [P-0129] ?
0.0001 to 10 µM

Also, CN1C(=O)C(CC(=O)N2[C@@H]3CC[C@H]2CN(c2nc(OC[C@@H]4CCCN4C)nc4cc(-c5cc(O)cc6ccccc56)ccc24)C3)N(C)C1=O (stereo partly drawn) [P-0369] please.
0.0001 to 10 µM

Also, CN1CCC[C@H]1COc1nc(N2[C@@H]3CC[C@H]2CN(CCO)C3)c2ccc(-c3cc(O)cc4ccccc34)cc2n1 [P-0145] please.
10 to 100 µM

Also, CNCC(=O)N1C[C@H]2CC[C@@H](C1)N2c1nc(OC[C@@H]2CCCN2C)nc2cc(-c3cc(O)cc4ccccc34)ccc12 [P-0206] please.
10 to 100 µM

Also, O=C(Cc1n[nH]c2ccccc12)N1[C@@H]2CC[C@H]1CN(c1nc(OCC34CCCN3CCC4)nc3c(F)c(-c4cc(O)cc5ccccc45)ccc13)C2 [P-0433] please.
0.0001 to 10 µM

Also, CN1CCC[C@H]1COc1nc(N2C[C@H]3CC[C@@H](C2)N3C(=O)[C@H]2CCCN2)c2ccc(-c3cc(O)cc4ccccc34)c(F)c2n1 [P-0403] please.
0.0001 to 10 µM
